Read-out: MYC, MYC (gene 4609)
Assay: LTEA_HepaRG_MYC: Life Technologies and Expression Analysis (LTEA) Assay for MYC using HepaRG (AID 2283518)
Details: mRNA level, 48 h; actives raise or lower the signal
Protocol: LTEA_HepaRG is a cell based, multiplexed-readout assay that uses HepaRG, a human liver cell line, with measurements taken at 48 hours after chemical dosing on a 96-well plate.LTEA_HepaRG_MYC is one of 102 assay component(s) measured in the LTEA HepaRG cell culture assay. It is a marker of Cell proliferation, survival, death.Data from the assay component LTEA_HepaRG_MYC was analyzed into 1 endpoint. […]
Activity calls are given as the source filed them. How the source made its calls: active means hit-call score of the fitted dose curve at least 0.9, where 1 is the maximum; inactive means score below 0.9.
Your response should consist of one outcome taken from active, inactive

Compound	Group Label
CCCCOC(=O)C(C)Oc1ccc(Oc2ccc(C(F)(F)F)cn2)cc1 (stereo not given)	inactive
O=C(c1ccc(O)cc1O)c1ccc(O)cc1O	inactive
CCSC(=O)N(CC(C)C)CC(C)C	inactive
CCCN(CCC)c1c([N+](=O)[O-])cc(C(F)(F)F)c(N)c1[N+](=O)[O-]	active
CC1(C)C(C=C(Cl)Cl)C1C(=O)OCc1cccc(Oc2ccccc2)c1 (stereo not given)	inactive

IN: Name the outcome recorded for N#CSCSc1nc2ccccc2s1 in the assay.
OUT: inactive

IN: Name the outcome recorded for CCN(CC)C(=O)c1cccc(C)c1 in the assay.
OUT: inactive

IN: Name the outcome recorded for CCOC(=O)c1ccc(O)cc1 in the assay.
OUT: inactive

IN: Name the outcome recorded for CCCCC(CC)CN1C(=O)C2C3C=CC(C3)C2C1=O (stereo not given) in the assay.
OUT: inactive

IN: Name the outcome recorded for CC(=O)[C@H]1CC[C@H]2[C@@H]3CCC4=CC(=O)CC[C@]4(C)[C@H]3CC[C@]12C in the assay.
OUT: active

====

read-out: Vascular cell adhesion molecule 1 (VCAM1), VCAM1 (gene 7412); experiment: BSK_CASM3C_VCAM1: BioMAP Diversity Plus: CASM3C Assay for Vascular cell adhesion molecule 1 (VCAM1) Biomarker Activity (AID 2283055); conditions: primary human coronary artery smooth muscle cells; actives raise or lower the signal;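 further: VCAM-1 protein level quantified by ELISA on the cells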
Activity calls are given as the source filed them. The calls were made as follows: active = hit-call score of the fitted dose curve at least 0.9, where 1 is the maximum; inactive = score below 0.9.
Your response should consist of one outcome taken from active, inactive

Compound	Group Label
CCCN(CCC)C(=O)SCC	inactive
O=C(c1ccc(O)cc1O)c1ccc(O)cc1O	inactive
CCCCCOC(=O)COc1cc(N2C(=O)C3=C(CCCC3)C2=O)c(F)cc1Cl	active

IN: Name the outcome recorded for CCCCOCCOCCOCc1cc2c(cc1CCC)OCO2 in the assay.
OUT: inactive

IN: Name the outcome recorded for N[C@@H](Cc1cc(I)c(Oc2ccc(O)c(I)c2)c(I)c1)C(=O)O in the assay.
OUT: inactive

IN: Name the outcome recorded for CCCOC(=O)c1ccc(C(=O)OCCC)nc1 in the assay.
OUT: inactive

IN: Name the outcome recorded for CCOC(=O)[C@H](C)Oc1ccc(Oc2nc3ccc(Cl)cc3o2)cc1 in the assay.
OUT: inactive

IN: Name the outcome recorded for CCOC(=O)COc1cc(-n2ncc(C(F)(F)F)c(C)c2=O)c(F)cc1Cl in the assay.
OUT: inactive

IN: Name the outcome recorded for Cc1nn(C)c(Oc2ccccc2)c1C=NOCc1ccc(C(=O)OC(C)(C)C)cc1 in the assay.
OUT: inactive

IN: Name the outcome recorded for CCC(C)OC(=O)N1CCCCC1CCO (centres undefined) in the assay.
OUT: inactive

IN: Name the outcome recorded for CCOC(=O)C(C)Oc1ccc(Oc2nc3ccc(Cl)cc3o2)cc1 (centres undefined) in the assay.
OUT: inactive

IN: Name the outcome recorded for CCCCC(CC)CN1C(=O)C2C3C=CC(C3)C2C1=O (centres undefined) in the assay.
OUT: inactive

IN: Name the outcome recorded for S=C(S)NCCNC(=S)S.[Mn+2].[S-]C([S-])=NCCN=C([S-])[S-].[Zn+2] in the assay.
OUT: inactive

IN: Name the outcome recorded for CC1(C)C(C=C(Cl)Cl)C1C(=O)OCc1cccc(Oc2ccccc2)c1 (centres undefined) in the assay.
OUT: inactive

IN: Name the outcome recorded for C[C@]12CC[C@@H]3c4ccc(O)cc4C[C@@H](CCCCCCCCCS(=O)CCCC(F)(F)C(F)(F)F)[C@H]3[C@@H]1CC[C@@H]2O (some centres undefined) in the assay.
OUT: inactive

====

target: Oxysterols receptor LXR-alpha (Homo sapiens) (UniProt Q13133); experiment: ATG_LXRa_TRANS: Attagene TRANS-FACTORIAL HepG2 Assay for human Liver X Receptor alpha (LXRa) (AID 2282980); details: HepG2 Attagene TRANS reporter, LXRa transactivation
Sequence (Q13133 whole entry, looked up): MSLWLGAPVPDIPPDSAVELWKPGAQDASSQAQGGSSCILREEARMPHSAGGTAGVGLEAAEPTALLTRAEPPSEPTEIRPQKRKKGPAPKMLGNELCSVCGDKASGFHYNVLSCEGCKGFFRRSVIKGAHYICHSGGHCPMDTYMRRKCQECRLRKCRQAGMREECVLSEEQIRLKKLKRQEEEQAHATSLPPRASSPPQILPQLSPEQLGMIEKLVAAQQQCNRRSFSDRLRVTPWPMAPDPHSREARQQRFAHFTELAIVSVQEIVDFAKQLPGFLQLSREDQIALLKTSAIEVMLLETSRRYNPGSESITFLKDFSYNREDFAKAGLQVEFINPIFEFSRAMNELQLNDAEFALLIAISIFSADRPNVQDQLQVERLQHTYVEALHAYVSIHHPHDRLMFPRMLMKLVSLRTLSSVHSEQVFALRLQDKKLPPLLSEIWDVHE
Inconclusive results are not listed. The source made the active and inactive calls. The calls were made as follows: active = hit-call score of the fitted dose curve at least 0.9, where 1 is the maximum; inconclusive = response in the unintended direction; inactive = score below 0.9.
Measurement Label: AC50

The examples below pair each entry with its known result.
Compound	Measurement Label	Experimental Value
COC(=O)c1ccccc1C(=O)O	AC50	inactive
S=C(S)NCCNC(=S)S.[Mn+2].[S-]C([S-])=NCCN=C([S-])[S-].[Zn+2]	AC50	inactive
COC(=O)CSc1cc(N=c2sc(=O)n3n2CCCC3)c(F)cc1Cl	AC50	inactive
CC(C)(c1ccc(O)cc1)c1ccc(O)cc1	AC50	inactive
O=C(c1ccccc1)C1CCCCC1	AC50	inactive
c1ccc(Nc2ccccc2)cc1	AC50	inactive
O=C(O)c1ccccc1	AC50	inactive
C#C[C@]1(O)CC[C@H]2[C@@H]3CCC4=CC(=O)CC[C@@H]4[C@H]3CC[C@@]21CC	AC50	inactive

IN: Name the recorded AC50 for C#CCOC(=O)[C@@H](C)Oc1ccc(Oc2ncc(Cl)cc2F)cc1 .
OUT: inactive

====

read-out: Signal transducer and activator of transcription 3 (Homo sapiens); experiment: LTEA_HepaRG_STAT3: Life Technologies and Expression Analysis (LTEA) Assay for Signal transducer and activator of transcription (STAT3) using HepaRG (AID 2283529); conditions: mRNA level, 48 h; actives raise or lower the signal
Calls of active or inactive are those of the source. The calls were made as follows: active = hit-call score of the fitted dose curve at least 0.9, where 1 is the maximum; inactive = score below 0.9.
Measurement Label: AC50

Molecule	Measurement Label	Experimental Value
CC(C)CCCCCCc1ccc(O)cc1	AC50	inactive
S=C([S-])NCCNC(=S)[S-].[Mn+2]	AC50	1.94 µM (active)
CCCOC(=O)c1ccc(C(=O)OCCC)nc1	AC50	inactive
CSC(=O)c1cccc2nnsc12	AC50	inactive
CN(C)C(=O)Nc1ccc(Cl)c(Cl)c1	AC50	inactive

IN: Name the recorded AC50 for CCN(Cc1c(F)cccc1Cl)c1c([N+](=O)[O-])cc(C(F)(F)F)cc1[N+](=O)[O-] .
OUT: inactive

IN: Name the recorded AC50 for C[C@]12CC[C@@H]3c4ccc(O)cc4C[C@@H](CCCCCCCCCS(=O)CCCC(F)(F)C(F)(F)F)[C@H]3[C@@H]1CC[C@@H]2O (some centres not stated) .
OUT: inactive

IN: Name the recorded AC50 for Oc1ccc(C(c2ccc(O)cc2)C(Cl)(Cl)Cl)cc1 .
OUT: 76.8 µM (active)

====

assay: ATG_FoxO_CIS: Attagene CIS-FACTORIAL HepG2 Assay for human Forkhead box O (FoxO) (AID 2282943); conditions: HepG2 Attagene cis-reporter, FoxO element, mRNA; actives raise or lower the signal
The source made the active and inactive calls. How the source made its calls: active means hit-call score of the fitted dose curve at least 0.9, where 1 is the maximum; inactive means score below 0.9.
Measurement Label: outcome

The examples below pair each entry with its known result.
Molecule	Measurement Label	Experimental Value
CCN(CC)C(=O)c1cccc(C)c1	outcome	inactive
CCCN(CCC)C(=O)SCC	outcome	inactive
O=C(Nc1ccc([N+](=O)[O-])cc1Cl)c1cc(Cl)ccc1O	outcome	inactive
COC(=O)c1c(Cl)nn(C)c1S(=O)(=O)NC(=O)Nc1nc(OC)cc(OC)n1	outcome	inactive
C#C[C@]1(O)CC[C@H]2[C@@H]3CCC4=CC(=O)CC[C@@H]4[C@H]3CC[C@@]21CC	outcome	inactive
CCCCOC(=O)C(C)Oc1ccc(Oc2ccc(C(F)(F)F)cn2)cc1 (stereo unspecified)	outcome	inactive
CCOC(=O)C(C)Oc1ccc(Oc2nc3ccc(Cl)cc3o2)cc1 (stereo unspecified)	outcome	inactive
COC(=O)c1ccccc1S(=O)(=O)NC(=O)Nc1nc(OC(F)F)cc(OC(F)F)n1	outcome	inactive
CCCCOCCOCCOCc1cc2c(cc1CCC)OCO2	outcome	inactive
COC(=O)CSc1cc(N=c2sc(=O)n3n2CCCC3)c(F)cc1Cl	outcome	inactive

Now consider the entry below.
IN: Name the recorded outcome for O=C(c1ccc(O)cc1O)c1ccc(O)cc1O .
OUT: inactive

====

experiment: ATG_M_32_CIS: Attagene CIS-FACTORIAL HepG2 Assay for M32 Transcription Factor (Internal Marker) (AID 2282949); settings: HepG2 Attagene cis-factorial M32 reporter, mRNA; actives raise or lower the signal;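 further: background control marker of the multiplexed CIS panel rather than a real target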
Active and inactive are the calls of the source. Rule for the calls: active = hit-call score of the fitted dose curve at least 0.9, where 1 is the maximum; inactive = score below 0.9.

Structure Smiles String	outcome
CCCN(CCC)c1c([N+](=O)[O-])cc(C(F)(F)F)c(N)c1[N+](=O)[O-]	inactive
CCN(Cc1c(F)cccc1Cl)c1c([N+](=O)[O-])cc(C(F)(F)F)cc1[N+](=O)[O-]	inactive
COc1c(Cl)ccc(Cl)c1C(=O)O	inactive
